Please go through the items and note down their viability at 72 h, 2 µM.
- method notes: Cytotoxicity against African green monkey Vero E6 cells assessed as cell viability at 2 uM measured after 72 hrs by MTT assay relative to control
- Assay type: toxicity, cell-based, Vero C1008
- protocol conditions: chlorocebus sabaeus, read-out: Activity
State just the number; it will be interpreted in %.

Task: Name the reported viability at 72 h, 2 µM value associated with the compound Cc1ccc(S(=O)(=O)Nc2ccc(C(=O)Nc3nc4ccccc4s3)cc2)cc1
Result: 70.6

Task: Name the reported viability at 72 h, 2 µM value associated with the compound O=C(Nc1nc2ccccc2s1)c1ccc(NS(=O)(=O)c2ccc(Br)cc2)cc1
Result: 97

Task: Name the reported viability at 72 h, 2 µM value associated with the compound COc1ccc(S(=O)(=O)Nc2cccc(C(=O)Nc3nc4ccccc4s3)c2)cc1
Result: 79.3

Task: Name the reported viability at 72 h, 2 µM value associated with the compound CC(C)(C)OC(=O)NCC(=O)Nc1nc2ccccc2s1
Result: 104

Task: Name the reported viability at 72 h, 2 µM value associated with the compound COc1ccc(S(=O)(=O)Nc2ccc(C(=O)Nc3nccs3)cc2)cc1
Result: 95.7

Task: Name the reported viability at 72 h, 2 µM value associated with the compound Cc1ccc(S(=O)(=O)NCC(=O)Nc2nc3ccccc3s2)cc1
Result: 101

Task: Name the reported viability at 72 h, 2 µM value associated with the compound O=C(Nc1nc2ccccc2s1)c1ccc(NC(=S)Nc2ccccc2)cc1
Result: 96

Task: Name the reported viability at 72 h, 2 µM value associated with the compound COc1ccc(S(=O)(=O)NCC(=O)Nc2nc3ccccc3s2)cc1
Result: 104

Task: Name the reported viability at 72 h, 2 µM value associated with the compound O=C(Nc1nc2ccccc2s1)c1ccc(NS(=O)(=O)c2ccc(F)cc2)cc1
Result: 93.6

Task: Name the reported viability at 72 h, 2 µM value associated with the compound O=C(Nc1nc2ccccc2s1)c1ccc(NS(=O)(=O)c2ccccc2)cc1
Result: 85.9

Value source: ChEMBL document CHEMBL5390225
